Reported protein stability index values for a set of sequences
- assay_remarks: protein stability index of a GFP-peptide fusion (GPS, HEK-293T) (PSI 1-6); higher = more stable;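 note: 24-mer peptide tiles fused after GFP, lentivirally expressed, FACS-sorted into six equal bins by GFP/DsRed ratio, decoded by Illumina sequencing, PSI is the read-weighted mean bin number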
- condition_label: treatment: MLN4924 1 uM, 8 h; c terminus: a fixed tail appended
// response body must contain only the number

Solved entries (count: 5):
entry_sequence="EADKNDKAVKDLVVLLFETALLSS [HSP90AB1]" value_observed=2.2
entry_sequence="APKPDAAPSIDLFSTDAFSSPPQG [SNAP91]" value_observed=4.84
entry_sequence="AACTRALESSEELLETANQTLQAM [FSD1]" value_observed=4.84
entry_sequence="DLCSDVNVCSLLAQTPLHVAAETG [RIPK4]" value_observed=3.21
entry_sequence="VLVNLVPAHKNLNKQAYDLAKALL [PDS5B]" value_observed=3.07

Reported protein stability index for GIPKGVMLSHDNITWIAGAVTKDF [ACSBG2] was 2.74

Quick note, protein stability index for RTYKQRFLFAKLFSHITSARKARK [PHTF1] landed at 2.55

Value of measured protein stability index for the entry TGSYNNFFRMFDRNTKRDVTLEAS [PPP2R2B] : 3.47

// recorded protein stability index for LQPPHESRPQPIYYGFSESAESQG [ADAMTSL2] : 4.22

Query VRGEDSGRKPERRRLKTTRLKEYT [DAPK3] yields protein stability index of 4.51

Per the record, SGGVASFICQATGDPRPKIVWNKK [PTPRD] has protein stability index of 3.58

Sure, the documented protein stability index for GRGPPSEPVLTQTSEQAPSSAPRD [PTPRD] is 5.34

Recorded protein stability index (sequence EGKRKAFYTCASHVTVVILFFVPC [OR4A15] ): 3.03

###

- assay_remarks: protein stability index of a GFP-peptide fusion (GPS, HEK-293T) (PSI 1-6); higher = more stable
- condition_label: treatment: DMSO; c terminus: a fixed tail appended
# binarize protein stability index: threshold 3 inclusive, high side Condition met, low side Condition not met

Please review the following examples before continuing.
entry_sequence="IKQLRSGGTPIRGALQIEQSEESD [PTPRD]" group_label="Condition met"
entry_sequence="IKCETSPPSSPRTLRLEKLGHPAL [PPFIA4]" group_label="Condition met"
entry_sequence="PKDENERSTCNVVQDEFLDTPCTN [DLC1]" group_label="Condition met"
entry_sequence="DPVRQCAECALVSLKEAEFYDKQL [ZFYVE21]" group_label="Condition met"
entry_sequence="KEDQAWDGASQDCPPLPAGVSFHI [FBXO34]" group_label="Condition met"
entry_sequence="FQREALENSHTNTEVLRNMGFAAK [CHMP4C]" group_label="Condition met"
entry_sequence="AKHMGLEPPPEVWQVLKTHPGDPR [POLD4]" group_label="Condition met"
entry_sequence="SMHKYQPRLHIVKADENNGFGSKN [TBX5]" group_label="Condition met"

Is protein stability index at least 3? Consider YKSWLKNLAKEQLSRENIQSSLLE [PPEF2]
Condition not met

Check this sequence for protein stability index at or above 3: RNKESPVFAPVYFPEELHRKAALE [HMOX1]
Condition met

# bool: protein stability index of FHVNLGKESRAQTLQNGRRHIHHL [BRF1] >= 3
Condition not met

# check: protein stability index of FECAWNGSDSVIMTGAYNNFFRMF [PPP2R2C] is greater than or equal to 3
Condition not met

Assess whether reported protein stability index for VLTEPILIETYTGLMSFIGNRNKL [TPRG1] sits at 3 or higher.
Condition not met

Reported protein stability index at or above 3? FIIEYYNIRPADSRWVRDPRYRED [FBXO34]
Condition not met

I'd appreciate it if you could say whether MGMNMNIGMSAAGMGLTGTMGMGM [CLINT1] has protein stability index at least equal to 3.
Condition not met

// inclusive: protein stability index at least 3? input: PESAIKFMAYEQIKRLVGSDQETL [SLC25A25]
Condition met
